- procedure summary: NCI Yeast Anticancer Drug Screen. Data for the mlh1 rad18 strain (AID 175)
- assay context: S. cerevisiae mlh1 rad18 strain growth inhibition; at 50.0 µM; stronger effect = higher value
The panel holds about 79,000 compounds, 15% with a hit somewhere; the sample as a whole holds those more often.
measured attribute: growth inhibition (%)
Give just the number in %; leave the unit off.

Recorded results for 5 compounds are shown here.
NNC(=O)C(=O)NN=C(C(Cl)(Cl)CO)C(Cl)(Cl)CO; 20.4
CC(C)(CO[C@H]1C[C@H]2CC[C@@]1(C)C2(C)C)[N+](=O)[O-]; 18.4
O=C(Nc1ccc(Cl)c(Cl)c1)Oc1ccc(-c2ccccc2)cc1; 95.7
COc1cc(C=O)cc(O)c1O; -0.6
COc1cc2cc(-c3ccc(Cl)c(Cl)c3)[n+](C)cc2cc1OC; 13.7

Suppose we examine the compound Cc1ccc(SCC(OCn2cnc3c(Cl)nc(N)nc32)[C@H](C)F)cc1 (stereo partly specified) ; what growth inhibition value has been reported?
-50.9

Suppose we examine the compound CCOC(=O)c1cn(CC)c2cc(-n3cccc3)c(F)cc2c1=O ; what growth inhibition value has been reported?
49.9

Suppose we examine the compound CC(=O)N(C(C)=O)c1cc2c3c(c1)CCCN3CCC2 ; what growth inhibition value has been reported?
-1.6

Suppose we examine the compound CC(C)NS(=O)(=O)c1ccccc1 ; what growth inhibition value has been reported?
26.9

Suppose we examine the compound CC(C)C(C)(C(N)=O)C(C)C ; what growth inhibition value has been reported?
-1.4

Suppose we examine the compound CCCCCC(=O)Nc1cc(S(=O)(=O)O)cc2cc(S(=O)(=O)O)cc(O)c12 ; what growth inhibition value has been reported?
-7.7

Suppose we examine the compound CC1OC(c2c(Cl)cccc2[N+](=O)[O-])OC1C (stereo unspecified) ; what growth inhibition value has been reported?
20

Suppose we examine the compound CC1(C)OC(=O)N=C1c1ccc(Br)cc1 ; what growth inhibition value has been reported?
15.3

Suppose we examine the compound CCCC(C)C(=O)OC1CCCCC1C (stereo unspecified) ; what growth inhibition value has been reported?
0.6

Suppose we examine the compound CCC[N+](CCC)=c1ccc2nc3c(C)cc(N(CC)CC)cc3sc-2c1 ; what growth inhibition value has been reported?
-39.2

Suppose we examine the compound C/C=C(/C)C(=O)O[C@H]1C[C@@H]2[C@@H](O)c3occ(C)c3C[C@]2(C)[C@@H](C)C1 ; what growth inhibition value has been reported?
90.2

Suppose we examine the compound c1ccc(C(C2=Nc3cccc4cccc(c34)N2)c2ccccc2)cc1 ; what growth inhibition value has been reported?
-22.8

Suppose we examine the compound COC(=O)C(=O)C(C(C)=O)C(=O)C(=O)Nc1ccc(C)cc1C (stereo unspecified) ; what growth inhibition value has been reported?
17.9

Suppose we examine the compound COC(=O)NC(=O)CCC(=O)O ; what growth inhibition value has been reported?
12.8

Suppose we examine the compound O=c1[nH]cnc2c1sc(=S)n2-c1ccccc1 ; what growth inhibition value has been reported?
-2.4

Suppose we examine the compound CC(=O)Oc1cc(OC(C)=O)c2c(c1)OC(c1ccc(OC(C)=O)c(OC(C)=O)c1)CC2=O (stereo unspecified) ; what growth inhibition value has been reported?
28

----------
- procedure summary: NCI Yeast Anticancer Drug Screen. Data for the sgs1 mgt1 strain (AID 161);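 further: 0% = growth of cultures given vehicle only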
- assay context: S. cerevisiae sgs1 mgt1 strain, at 50.0 µM
Compounds without any hit were thinned out: in the full panel of roughly 79,000, 15% have a hit. The source made the active and inactive calls. No stated cut-off is given here; in the data, active means growth inhibition above about 70%; inactive means the rest.
Respond using exactly one of the listed classes: True = active, False = inactive

Solved cases below.
O=P1(O)c2ccccc2CSCc2ccccc21; False
CC(C)(C)C1CCC2c3c([nH]c4ccccc34)C3C(=O)N(c4cc(Cl)ccc4Cl)C(=O)C3C2C1 (centres undefined); False
CCOC(=O)/C(Cc1ccc2c(c1)OCO2)=N\O; False
Nc1nc(-c2cc(Br)ccc2N=NN2CCOCC2)nc2ccc(Br)cc12; True

Please turn your attention to the following entry.
What is the recorded call for this compound in the test? c1ccc(C[n+]2cccc3ccccc32)cc1
False
